// reported solubility for each item listed
- test-protocol: Solubility of the compound
- Assay type: physicochemical
metric-name: solubility

>>> df
                                   compound  metric_name        val
0  CO[C@H]1CN(c2nc(-c3cncc(NCCN4CCN(C)CC4)n3)c(C(=O)O)s2)CC[C@H]1NC(=O)c1[nH]c(C)c(Cl)c1Cl   solubility      36 µM
1  CO[C@H]1CN(c2nc(C(=O)N(C)C)c(C(=O)O)s2)CC[C@H]1NC(=O)c1[nH]c(C)c(Cl)c1Cl (racemic)   solubility  > 1000 µM
2  CO[C@H]1CN(c2nc(-c3ccccn3)c(C(=O)O)s2)CC[C@H]1NC(=O)c1[nH]c(C)c(Cl)c1Cl   solubility     < 1 µM
3  CO[C@H]1CN(c2nc(CN3CCOCC3)c(C(=O)O)s2)CC[C@H]1NC(=O)c1[nH]c(C)c(Cl)c1Cl (racemic)   solubility  > 1000 µM

###

Reported values of bioavailability for individual entries
- test-protocol: Bioavailability in dog at 10 mg/kg, iv
- Assay type: ADME, organism-based, Canis lupus familiaris
- assay-conditions: plasma
metric-name: bioavailability (%)

>>> df
                            molecule_smiles  val
0  CO[C@H]1CN(c2nc(-c3cnccn3)c(C(=O)O)s2)CC[C@H]1NC(=O)c1[nH]c(C)c(Cl)c1Cl   18
1  COCCNC(=O)c1nc(N2CC[C@@H](NC(=O)c3[nH]c(C)c(Cl)c3Cl)[C@@H](OC)C2)sc1C(=O)O  100
2  CO[C@H]1CN(c2nc(-c3ncccn3)c(C(=O)O)s2)CC[C@H]1NC(=O)c1[nH]c(C)c(Cl)c1Cl  100
3  COC[C@H](C)NC(=O)c1nc(N2CC[C@@H](NC(=O)c3[nH]c(C)c(Cl)c3Cl)[C@@H](OC)C2)sc1C(=O)O   96
4  COCC(COC)NC(=O)c1nc(N2CC[C@@H](NC(=O)c3[nH]c(C)c(Cl)c3Cl)[C@@H](OC)C2)sc1C(=O)O   29
5  CO[C@H]1CN(c2nc(-c3ncnn3C)c(C(=O)O)s2)CC[C@H]1NC(=O)c1[nH]c(C)c(Cl)c1Cl   70

###

- test-protocol: Octanol-phosphate buffer distribution coefficient, log D of the compound at pH 7.4 by shake flask method
- Format: physicochemical
metric-name: logD

>>> print(df.to_string())
                                    molecule  readout_qualifier    val
 0  CO[C@H]1CN(c2nc(C(=O)O)cs2)CC[C@H]1NC(=O)c1[nH]c(C)c(Cl)c1Cl                  =   0.25
 1  COC[C@H](C)NC(=O)c1nc(N2CC[C@@H](NC(=O)c3[nH]c(C)c(Cl)c3Cl)[C@@H](OC)C2)sc1C(=O)O                  =    1.4
 2  COCC(COC)NC(=O)c1nc(N2CC[C@@H](NC(=O)c3[nH]c(C)c(Cl)c3Cl)[C@@H](OC)C2)sc1C(=O)O                  =      1
 3  CO[C@H]1CN(c2nc(-c3ncccn3)c(C(=O)O)s2)CC[C@H]1NC(=O)c1[nH]c(C)c(Cl)c1Cl                  =   0.54
 4  COc1cc(OC)nc(-c2nc(N3CC[C@@H](NC(=O)c4[nH]c(C)c(Cl)c4Cl)[C@@H](OC)C3)sc2C(=O)O)n1                  =    1.7
 5  COCn1ccnc1-c1nc(N2CC[C@@H](NC(=O)c3[nH]c(C)c(Cl)c3Cl)[C@@H](OC)C2)sc1C(=O)O                  =   0.24
 6  CO[C@H]1CN(c2nc(C)c(C(=O)O)s2)CC[C@H]1NC(=O)c1[nH]c(C)c(Cl)c1Cl                  =    1.2
 7  CO[C@H]1CN(c2nc(CO)c(C(=O)O)s2)CC[C@H]1NC(=O)c1[nH]c(C)c(Cl)c1Cl (racemic)                  =  -0.27
 8  CO[C@H]1CO[C@]2(CN(c3ncc(C(=O)O)s3)CC[C@H]2NC(=O)c2[nH]c(C)c(Cl)c2Cl)OC1 (relative stereo)                  =  -0.18
 9  CO[C@H]1CN(c2nc(C(=O)NN3CCOCC3)c(C(=O)O)s2)CC[C@H]1NC(=O)c1[nH]c(C)c(Cl)c1Cl                  =  -0.15
10  COCc1nc(N2CC[C@@H](NC(=O)c3[nH]c(C)c(Cl)c3Cl)[C@@H](OC)C2)sc1C(=O)O                  =   0.44
11  CS[C@H]1CN(c2ncc(C(=O)O)s2)CC[C@H]1NC(=O)c1[nH]c(C)c(Cl)c1Cl (racemic)                  =   0.72
12  CO[C@H]1CN(c2nc(C(C)=O)c(C(=O)O)s2)CC[C@H]1NC(=O)c1[nH]c(C)c(Cl)c1Cl                  =   0.36
13  COCCO[C@H]1CN(c2ncc(C(=O)O)s2)CC[C@H]1NC(=O)c1[nH]c(C)c(Cl)c1Cl (racemic)                  =   0.06
14  CO[C@H]1CN(c2nc(C(=O)N3CCOCC3)c(C(=O)O)s2)CC[C@H]1NC(=O)c1[nH]c(C)c(Cl)c1Cl (racemic)                  =  -0.99
15  CO[C@H]1CN(c2nc(-c3ccn[nH]3)c(C(=O)O)s2)CC[C@H]1NC(=O)c1[nH]c(C)c(Cl)c1Cl                  =    1.7
16  Cc1[nH]c(C(=O)N[C@@H]2CCN(c3ncc(C(=O)O)s3)C[C@@H]2C)c(Cl)c1Cl (racemic)                  =   0.54
17  Cc1[nH]c(C(=O)N[C@@H]2CCN(c3ncc(C(=O)O)s3)CC23OCCCO3)c(Cl)c1Cl                  =    0.4
18  Cc1[nH]c(C(=O)N[C@@H]2CCN(c3ncc(C(=O)O)s3)CC23OCCO3)c(Cl)c1Cl                  =  -0.39
19  CO[C@H]1CN(c2nc(C(F)F)c(C(=O)O)s2)CC[C@H]1NC(=O)c1[nH]c(C)c(Cl)c1Cl                  =   0.52
20  COCCNC(=O)c1nc(N2CC[C@@H](NC(=O)c3[nH]c(C)c(Cl)c3Cl)[C@@H](OC)C2)sc1C(=O)O                  =    1.2
21  CO[C@H]1CN(c2nc(-c3ncc[nH]3)c(C(=O)O)s2)CC[C@H]1NC(=O)c1[nH]c(C)c(Cl)c1Cl                  >    2.5
22  COC[C@H]1CN(c2ncc(C(=O)O)s2)CC[C@H]1NC(=O)c1[nH]c(C)c(Cl)c1Cl (racemic)                  =   0.06
23  Cc1[nH]c(C(=O)N[C@@H]2CCN(c3ncc(C(=O)O)s3)C[C@@H]2N=[N+]=[N-])c(Cl)c1Cl (racemic)                  =   0.53
24  CO[C@H]1CN(c2nc3cccc(C(=O)O)c3s2)CC[C@H]1NC(=O)c1[nH]c(C)c(Cl)c1Cl                  =    1.7
25  Cc1[nH]c(C(=O)N[C@@H]2CCN(c3ncc(C(=O)O)s3)C[C@@H]2CO)c(Cl)c1Cl (racemic)                  =  -0.42
26  COC1(OC)CN(c2ncc(C(=O)O)s2)CC[C@H]1NC(=O)c1[nH]c(C)c(Cl)c1Cl                  =   0.24
27  CO[C@H]1CN(c2nc(CN3CCOCC3)c(C(=O)O)s2)CC[C@H]1NC(=O)c1[nH]c(C)c(Cl)c1Cl (racemic)                  =    1.4
28  Cc1[nH]c(C(=O)N[C@@H]2CCN(c3ncc(C(=O)O)s3)CC23OCC2(CC2)CO3)c(Cl)c1Cl                  =   0.88
29  CO[C@H]1CN(c2nc(-c3cncc(OCCN(C)C)n3)c(C(=O)O)s2)CC[C@H]1NC(=O)c1[nH]c(C)c(Cl)c1Cl                  =    0.8
30  CO[C@H]1CN(c2nc(-c3nccn3C)c(C(=O)O)s2)CC[C@H]1NC(=O)c1[nH]c(C)c(Cl)c1Cl                  >      3
